Measured melting point of individual entries
Recorded metric: melting point

INSERT INTO results (sample_smiles, recorded_metric, data_value) VALUES
  ('Cc1cc(NS(=O)(=O)c2ccc(F)c(F)c2)cc(C)c1S(=O)(=O)C[N+](=O)[O-]', 'melting point', '158 to 160 °C'),
  ('Cc1cc(NS(=O)(=O)c2cccc(C(F)(F)F)c2)cc(C)c1S(=O)(=O)C[N+](=O)[O-]', 'melting point', '146 to 148 °C'),
  ('Cc1cc(NS(=O)(=O)c2ccc(-c3ccccc3)cc2)cc(C)c1S(=O)(=O)C[N+](=O)[O-]', 'melting point', '206 to 208 °C (dec.)'),
  ('Cc1cc(NS(=O)(=O)c2ccc3oc4ccccc4c3c2)cc(C)c1S(=O)(=O)C[N+](=O)[O-]', 'melting point', '214 to 215 °C (dec.)');
